- System: M14
- test.summary: NCI tumour cell line growth inhibition, 48 h
Active and inactive are the calls of the source. Cut-off read from the data, not from the text of the source: active = GI50 up to about 1.1 µM and inactive = higher.

| compound | GI50 |
| --- | --- |
| COc1ccccc1N1C(=O)/C(=C\c2ccccc2)SC1c1cc(OC)c(OC)c(OC)c1 (stereo unspecified) | 35.1 µM (inactive) |
| COc1ccc(C2S/C(=C\c3cccc(OC)c3)C(=O)N2NC(=O)Cc2ccccc2)cc1 (stereo unspecified) | > 100 µM (inactive) |
| Nn1c(Nc2ccc(S(N)(=O)=O)cc2)nnc(/C=C/c2c(O)ccc3ccccc23)c1=O | 26.4 µM (inactive) |
| CCCCN1C(=O)CC2[C@@H]3CCc4cc(OC)ccc4C3CC[C@]2(C)C1=O (stereo partly specified) | > 10 µM (inactive) |
| CCOC(=O)C12CCC(c3c(C)cccc3C)(O1)C(C(=O)OC)=C2C(=O)OC (stereo unspecified) | 2.69 µM (inactive) |
| C=C(C)CNC(=S)N(N)c1ccc(OC)cc1 | > 100 µM (inactive) |
| CC(C)(CN1CCCCC1)C(=O)CC(SCCN)c1ccc(Cl)cc1 (stereo unspecified) | 1.82 µM (inactive) |
| c1ccc(CNn2nnc3ccccc32)cc1 | > 100 µM (inactive) |
| O=C(c1ccc(Cl)cc1)N(C(=S)OC12CC3CC(CC(C3)C1)C2)c1ccccc1 | 34 µM (inactive) |
| COC(=O)C(CCC1CC(OC)N(C(=O)OCc2ccccc2)C1)/N=C/c1ccccc1 (stereo unspecified) | 54.7 µM (inactive) |
| O=c1[nH]c2cc([N+](=O)[O-])c(N(CCO)CCO)c([N+](=O)[O-])c2[nH]1 | 28.6 µM (inactive) |
| CC1(C)C=C(/C=N/Nc2ccc(Br)cc2)C(C#N)=C(O)C1(C#N)C#N | 26.6 µM (inactive) |
| CC(=O)C1=C(C)N(c2ccccc2)C2(O)C=CC(O)=C3C(=O)c4ccccc4C(=O)C312 (stereo unspecified) | 20.3 µM (inactive) |
| O=C1/C(=C/c2ccc3c(c2)OCO3)Sc2scc(-c3ccc(O)c(O)c3)[n+]21 | 3 µM (inactive) |
| O=C(O)CN1CCCC(Cc2c[nH]c3ccccc23)C1 (stereo unspecified) | > 100 µM (inactive) |
| Cn1cnnc1Sc1c([N+](=O)[O-])nc(-c2ccc([N+](=O)[O-])cc2)n1C | 16.4 µM (inactive) |
| CC(=O)OC1CC2C(C)(C)OC(=O)CC(OC(C)=O)[C@]2(C)C2CCC3(C)C(=CCC3[C@H]3COC(=O)C3)[C@]12C (stereo partly specified) | 32.7 µM (inactive) |
| Cc1cn2c(=O)c3ncn(C4OC(CO)C(O)C4O)c3n(C)c2n1 (stereo unspecified) | > 100 µM (inactive) |
| COc1cc(OC)c(SSCCCCS(=O)O)c(OC)c1 | 14.3 µM (inactive) |
| O=C(O)CC1NCc2cc3ccccc3nc21 (stereo unspecified) | > 100 µM (inactive) |
| Cc1c2c(c(C)n1-c1ccccc1)C(=O)N(CCCCN1CCN(c3ccccc3)CC1)C2=O | 9.53 µM (inactive) |
| CC1(C)CC2(S(=O)(=O)c3ccccc3)ON1CC2S(=O)(=O)c1ccccc1 (stereo unspecified) | > 100 µM (inactive) |
| CCc1ncnc2cc(OCC3CO3)c(OC)cc12 (stereo unspecified) | 5.28 µM (inactive) |
| COc1ccc(C(=O)O)c2c(=O)c3ccccc3[nH]c12 | > 31.6 µM (inactive) |
| COC(=O)[C@H](C)[C@H]1CC[C@@](C)([C@H]2CC3C(C)(C)[C@H]4CCC(C)=C[C@H]4C[C@@]3(C)O2)OO1 (stereo partly specified) | 12.6 µM (inactive) |
| COc1ccc(N2C(=O)/C(=C/c3ccc(N(CCC#N)CCC#N)cc3)N=C2c2ccccc2)cc1 | > 100 µM (inactive) |
| Cc1ccc(C2=Nc3ccccc3SC(c3cccc([N+](=O)[O-])c3)C2)cc1 (stereo unspecified) | 23.9 µM (inactive) |
| N/C(=N\c1ccc(Cl)cc1)c1ccccc1N | > 100 µM (inactive) |
| CC(C)(C)[Si](C)(C)OCC1OC(n2cnc3c(=O)[nH]cnc32)CC1O (stereo unspecified) | > 100 µM (inactive) |
| Nc1ccccc1C(=O)CC1OC(=O)c2ccccc21 (stereo unspecified) | > 100 µM (inactive) |
| O=C(/C=C/c1ccc(Cl)c(Cl)c1)C1CCC(Cl)CC1 (stereo unspecified) | 18.5 µM (inactive) |

----------
- Tested on: NCI-H522
- test.summary: NCI tumour cell line growth inhibition, 48 h
Activity calls are given as the source filed them. No stated cut-off is given here; in the data, active = GI50 up to about 1.1 µM and inactive = higher.
Classes used: active, inactive

| compound | label |
| --- | --- |
| COc1ccc2nc3cc(Cl)ccc3c(NCCCN(CCCl)CCCl)c2c1 | active |
| CC1CC2C3CC(F)C4=CC(=O)C=CC4(C)C3(F)C(O)CC2(C)C1(O)C(=O)COC(=O)C(C)(C)C (stereo not given) | inactive |
| CCC1OC(=O)C(C)C(OC2CC(C)(O)C(O)C(C)O2)C(C)C(O)C(C)(O)CC(C)C(=O)C(C)C(O)C1C (stereo not given) | inactive |
| COC(=O)c1sc2c(c1C(=O)OC)/C(=N/c1ccc(OC)cc1)S/C2=N\c1ccc(OC)cc1 | active |
| Cc1cn(C2OC(C)(CO)C(O)C2O)c(=O)[nH]c1=O (stereo not given) | inactive |

----------
- System: A498
- test.summary: NCI tumour cell line growth inhibition, 48 h
Active and inactive are the calls of the source. Cut-off read from the data, not from the text of the source: active = GI50 up to about 1.1 µM and inactive = higher.
This section presents compounds with their documented GI50 values.
parameter: GI50

| compound | observed.result |
| --- | --- |
| O=C(Nc1ccc([N+](=O)[O-])cc1Cl)c1cccc([N+](=O)[O-])c1O | 0.668 µM (active) |
| COc1cc([C@H]2c3cc4c(cc3[C@H](NCc3ccc(F)cc3)C3COC(=O)[C@H]32)OCO4)cc(OC)c1O (stereo not given in full) | 2.19 µM (inactive) |
| CC(CN(C)C)C(=O)c1ccccc1 (stereo not given) | > 46.1 µM (inactive) |
| O=C(O)c1ccc(C2C3C=CC(C3)C2[N+](=O)[O-])cc1 (stereo not given) | > 100 µM (inactive) |
| Cc1cc(N(CCC#N)CCC#N)ccc1/N=N/c1ccc(Br)cc1 | 13.7 µM (inactive) |
| CCC1(CC)C(=O)NC(=O)NC1=S | > 100 µM (inactive) |
| CCSc1nc(N2CCOCC2)c2cn[nH]c2n1 | 4.6 µM (inactive) |
| COc1ccc(OC)c(CNc2ccc(O)c(C(=O)NCCc3ccc(F)cc3)c2)c1 | 16.4 µM (inactive) |
| Cc1c2c(c(C)n1-c1ccccc1)C(=O)N(CCCCN1CCN(c3ccccc3)CC1)C2=O | 26.1 µM (inactive) |
| Cc1ncc(COP(=O)(O)O)c(C)c1O | > 100 µM (inactive) |
| O=C(/C=C/c1ccc(/C=C/C(=O)c2ccc(O)cc2)cc1)c1ccc(O)cc1 | > 100 µM (inactive) |
| CCCCCCCC(CC(=O)O)OC(=O)CC(CCCCCCC)OC1OC(C)C(O)C(O)C1OC1OC(C)C(O)C(O)C1O (stereo not given) | > 100 µM (inactive) |
| CC(=O)N/C(=C\c1ccc(/C=C(\NC(C)=O)C2=NC3C(=O)c4ccccc4C(=O)C3N2)cc1)C1=NC2C(=O)c3ccccc3C(=O)C2N1 (stereo not given) | 5.57 µM (inactive) |
| Cc1cc(NS(=O)(=O)c2ccc(Nc3c4ccccc4nc4c(C(=O)N5CCN(CCO)CC5)ccc(Cl)c34)cc2)no1 | > 100 µM (inactive) |
| CCC(C)(C)c1ccc(OCCCCNC(=O)c2ccc3ccccc3c2O)c(C(C)(C)CC)c1 | 29.7 µM (inactive) |
| O=C1CS[C@@](CC(c2ccc(Cl)cc2)c2ccc(Cl)cc2)(c2ccc(Cl)cc2)N1 | 11.6 µM (inactive) |
| Nc1nc(Cl)cc(Nc2ccc3c(c2)CCC3)n1 | > 100 µM (inactive) |
| O=[N+]([O-])c1ccc2c(c1)N=C1OC(c3c[nH]c4ccc(COc5ccccc5)cc34)C(O)=C1N2 (stereo not given) | > 100 µM (inactive) |
| CCN(CC)C(=O)CNC(=O)OC(C)(C)C | > 100 µM (inactive) |
| C=C1CCC2C(C)(CO)C(O)CCC2(C)C1C/C=C1/CCOC1=O (stereo not given) | > 100 µM (inactive) |

----------
Recorded GI50 by entry
- Test system: SK-MEL-28
- test.summary: NCI tumour cell line growth inhibition, 48 h
The source made the active and inactive calls. Rule as the data show it: active = GI50 up to about 1.1 µM and inactive = higher.
parameter: GI50

| molecule | observed.result |
| --- | --- |
| CC[C@H](CC[C@@H](C)[C@H]1CC[C@H]2[C@@H]3CC=C4C[C@@H](O)CC[C@]4(C)[C@H]3CC[C@]12C)C(C)C [BETA-SITOSTEROL] | > 100 µM (inactive) |
| CCSc1nc(N2CCOCC2)c2cn[nH]c2n1 | 88.5 µM (inactive) |
| CC(C)OP(=O)(OC(C)C)/C(=N/Nc1ccccc1[N+](=O)[O-])NCCN/C(=N\Nc1ccccc1[N+](=O)[O-])P(=O)(OC(C)C)OC(C)C | 39.4 µM (inactive) |
| NC(=O)C(c1ccccc1)N1OC2C(=O)N(c3ccccc3)C(=O)C2C1c1c2ccccc2c(Cl)c2ccccc12 (centres undefined) | > 100 µM (inactive) |
| CSc1nc(NC2OCC(OC(C)=O)C(OC(C)=O)C2OC(C)=O)c2c(n1)OCC2=O (centres undefined) | > 100 µM (inactive) |
| O=C1C(NCCc2cc(Cl)c(O)c(Cl)c2)=CC(=O)c2[nH]cnc21 | 28 µM (inactive) |
| O=[N+]([O-])c1cccc(C2=NOC(C3CCCCC3)C2)c1 (centres undefined) | > 100 µM (inactive) |
| CN(C)c1n/c(=N/c2ccc3c(c2)OCO3)ss1 | > 100 µM (inactive) |
| CC(CN(C)C)C(=O)c1ccccc1 (centres undefined) | > 41.7 µM (inactive) |
